// values below are reported DC50
- target.system: PIP4K2C (Homo sapiens)
- Sequence (Q8TBX8 1-421): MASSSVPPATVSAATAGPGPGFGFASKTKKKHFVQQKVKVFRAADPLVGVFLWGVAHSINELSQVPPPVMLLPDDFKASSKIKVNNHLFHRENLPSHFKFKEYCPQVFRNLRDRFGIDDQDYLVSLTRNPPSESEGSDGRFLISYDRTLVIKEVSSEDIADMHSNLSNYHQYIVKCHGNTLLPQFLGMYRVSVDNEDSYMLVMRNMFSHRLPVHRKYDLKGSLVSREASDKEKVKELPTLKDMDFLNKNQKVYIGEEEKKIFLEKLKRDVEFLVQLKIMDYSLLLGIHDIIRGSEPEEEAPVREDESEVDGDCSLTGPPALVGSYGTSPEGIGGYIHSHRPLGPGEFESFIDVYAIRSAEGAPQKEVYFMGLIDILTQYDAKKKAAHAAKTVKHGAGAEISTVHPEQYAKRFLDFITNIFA
- run.description: HiBiT PIP4K2C degradation assay in MOLT-4 cells (endogenous PIP4K2C C-terminally tagged with HiBiT)
- Type: cell-based
- Set-up: untagged in primary human PBMCs and monocyte-derived dendritic cells
- setup.conditions: 6 hours of incubation time, rather than 24 hours; MOLT-4, top concentration 10 micromolar; read-out: HiBIT-degradation MOLT4 PIP4k2C DC50 (6 hours, marked *)
- Method: Example B-2: HiBiT PIP4K2C degradation assay […] To study PIP4K2C degradation, 384-well plates were plated with a 10-point dose response curve, 3-fold dilution, in duplicate with a top starting concentration of 10 micromolar. […] Luminescence was measured with a PHERAstar FSX plate reader (BMG Labtech, Cary, NC). […]
measured.attribute: DC50

compound: O=C1CC[C@H](Nc2ccc(N3CCC(N4CCC(O)(C(=O)N[C@H]5CC[C@H](Nc6ncc(F)c(-c7cccc(-n8ccccc8=O)c7)n6)CC5)CC4)CC3)c(F)c2)C(=O)N1 (single isomer, unassigned)
measured.attribute: DC50
measured.result: < 500 nM
--
compound: O=C1CCC(Nc2ccc(C3CCN([C@H]4CC[C@H](C(=O)N[C@H]5CC[C@H](Nc6ncc(F)c(-c7cccc(N8CCOC8=O)c7)n6)CC5)CC4)CC3)c(F)c2)C(=O)N1 (stereo partly drawn)
measured.attribute: DC50
measured.result: < 500 nM
--
compound: Cc1ccn(-c2cccc(-c3nc(N[C@H]4CC[C@H](C(=O)N5CCC(O)(CN6CCN(c7ccc(NC8CCC(=O)NC8=O)cc7F)CC6)CC5)CC4)ncc3F)c2)c(=O)c1 (stereo partly drawn)
measured.attribute: DC50
measured.result: < 500 nM

###

compounds and their reported DC50
- target.system: PIP4K2C (Homo sapiens)
- run.description: HiBiT PIP4K2C degradation assay in MOLT-4 cells (endogenous PIP4K2C C-terminally tagged with HiBiT)
- Format: cell-based
- Design: untagged in primary human PBMCs and monocyte-derived dendritic cells
- setup.conditions: 6 hours of incubation time, rather than 24 hours; MOLT-4, top concentration 10 micromolar; read-out: HiBIT-degradation MOLT4 PIP4k2C DC50 (6 hours, marked *)
measured.attribute: DC50

compound: Cn1nc(C2CCC(=O)NC2=O)c2ccc(N3CCN([C@H]4CC[C@H](NC(=O)[C@H]5CC[C@H](Nc6ncc(F)c(-c7cccc(-n8ccccc8=O)c7)n6)CC5)CC4)CC3)cc21 (stereo partly drawn) [Compound 383]
measured.attribute: DC50
measured.result: < 0.5 µM
--
compound: O=C1CCC(Nc2ccc(C3CCN([C@H]4CC[C@H](NC(=O)[C@H]5CC[C@H](Nc6ncc(F)c(-c7ccnc(N8CCCOC8=O)c7)n6)CC5)CC4)CC3)c(F)c2)C(=O)N1 (stereo partly drawn) [Compound 550]
measured.attribute: DC50
measured.result: < 0.5 µM
--
compound: O=C1CCC(Nc2ccc(C3CCN([C@H]4CC[C@H](NC(=O)[C@H]5CC[C@H](Nc6ncc(F)c(-c7cccc(N8CCOCC8=O)c7)n6)CC5)CC4)CC3)c(F)c2)C(=O)N1 (stereo partly drawn) [Compound 547]
measured.attribute: DC50
measured.result: < 0.5 µM

###

- target.system: PIP4K2C (Homo sapiens, UniProt Q8TBX8)
- run.description: Enzyme Binding Assay (KINOMEscan): active site-directed competition binding to an immobilized ligand
- setup.conditions: 11-point dose response, duplicate, top concentration 5 micromolar; read-out: Pip4k2c Kd: IC50
pIC50: −log10 of the molar value.
// pIC50 lookup, one value per entry

molecule: NC(=O)[C@H]1CC[C@H](Nc2ncc(Cl)c(-c3cccc(-c4ccccc4)c3)n2)CC1 [Compound 19]
target.system: PIP4K2C (Homo sapiens, UniProt Q8TBX8)
pIC50: > 6.30

molecule: CNC(=O)[C@H]1C[C@@H](Nc2ncc(Cl)c(-c3cnn(-c4ccc(F)cc4)c3)n2)C1 [Compound 122]
target.system: PIP4K2C (Homo sapiens, UniProt Q8TBX8)
pIC50: > 6.30

molecule: NC(=O)[C@@H]1CCC[C@H](Nc2ncc(F)c(-c3cccc(N4CCOCC4=O)n3)n2)C1 (relative stereo) [Compound 627]
target.system: PIP4K2C (Homo sapiens, UniProt Q8TBX8)
pIC50: > 6.30

molecule: NC(=O)[C@@H]1CCC[C@H](Nc2ncc(F)c(-c3cccc(N4CCOCC4=O)c3)n2)C1 (relative stereo) [Compound 269]
target.system: PIP4K2C (Homo sapiens, UniProt Q8TBX8)
pIC50: > 6.30

molecule: CC(=O)N[C@H]1CC[C@H](Nc2ncc(Cl)c(-c3cnn(-c4ccc[nH]c4=O)c3)n2)CC1 [Compound 149]
target.system: PIP4K2C (Homo sapiens, UniProt Q8TBX8)
pIC50: > 6.30

molecule: NC(=O)[C@H]1CC[C@H](Nc2ncc(F)c(-c3cccc(N4CCC(O)CC4)c3)n2)CC1 [Compound 251]
target.system: PIP4K2C (Homo sapiens, UniProt Q8TBX8)
pIC50: > 6.30

molecule: CNC(=O)[C@H]1C[C@H](Nc2ncc(Cl)c(-c3cccc(-c4ccc(F)cc4)n3)n2)C1 [Compound 140]
target.system: PIP4K2C (Homo sapiens, UniProt Q8TBX8)
pIC50: > 6.30

molecule: CNC(=O)[C@H]1C[C@@H](Nc2ncc(Cl)c(-c3cccc(-c4ccc[nH]c4=O)c3)n2)C1 [Compound 156]
target.system: PIP4K2C (Homo sapiens, UniProt Q8TBX8)
pIC50: > 6.30

molecule: CNC(=O)[C@H]1CC[C@@H](Nc2ncc(Cl)c(-c3cnn(-c4cccc(=O)[nH]4)c3)n2)CC1 [Compound 167]
target.system: PIP4K2C (Homo sapiens, UniProt Q8TBX8)
pIC50: 6.00 to 6.30

molecule: CC(=O)N1CCC[C@H](Nc2ncc(Cl)c(-c3cccc(-c4cccc(=O)[nH]4)c3)n2)C1 [Compound 157]
target.system: PIP4K2C (Homo sapiens, UniProt Q8TBX8)
pIC50: > 6.30

molecule: CC(=O)N[C@H]1CC[C@H](Nc2ncc(F)c(-c3ccnc(-n4ccccc4=O)c3)n2)CC1 [Compound 265]
target.system: PIP4K2C (Homo sapiens, UniProt Q8TBX8)
pIC50: > 6.30

molecule: CC(=O)N1CCC2(CCC(C(=O)N3CCC(Nc4ncc(Cl)c(-c5cccc(-c6ccccc6)c5)n4)CC3)CC2)CC1 [Compound 13]
target.system: PIP4K2C (Homo sapiens, UniProt Q8TBX8)
pIC50: > 6.30

molecule: CNC(=O)[C@H]1CC[C@H](Nc2ncc(Cl)c(-c3cnn(C4CCCCC4)c3)n2)CC1 [Compound 118]
target.system: PIP4K2C (Homo sapiens, UniProt Q8TBX8)
pIC50: > 6.30

molecule: NC(=O)[C@H]1CCC[C@@H](Nc2ncc(F)c(-c3ccn(-c4ccc(F)cc4)n3)n2)C1 (relative stereo) [Compound 42]
target.system: PIP4K2C (Homo sapiens, UniProt Q8TBX8)
pIC50: 5.30 to 6.00

molecule: CNC(=O)[C@H]1CC[C@H](Nc2ncc(Cl)c(-c3ccc(=O)n(-c4ccc(F)cc4)c3)n2)CC1 [Compound 95]
target.system: PIP4K2C (Homo sapiens, UniProt Q8TBX8)
pIC50: 5.30 to 6.00
